The measurements presented in this section are drawn from ChEMBL document CHEMBL1134547.

- experimentalSystem: Dihydrofolate reductase (Rattus norvegicus)
- Sequence (Q920D2 whole entry): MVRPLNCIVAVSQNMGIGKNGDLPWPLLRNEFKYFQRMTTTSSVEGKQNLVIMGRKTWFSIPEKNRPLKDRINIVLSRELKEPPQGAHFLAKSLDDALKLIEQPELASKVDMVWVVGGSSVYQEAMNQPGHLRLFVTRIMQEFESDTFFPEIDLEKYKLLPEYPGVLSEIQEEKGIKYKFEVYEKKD
Rule for this label: Condition met means IC50 is less than 4 µM; Condition not met means IC50 is at least 4 µM.

{"smilesRepresentation": "CCc1nc(N)nc(N)c1-c1ccc(Cl)c(/N=N/N(CCOC(C)=O)Cc2cccc(F)c2)c1", "experimentalSystem": "Dihydrofolate reductase (Rattus norvegicus)", "assignedLabel": "Condition met"}

# input Field: below-cutoff. Rule: recorded IC50 strictly less than 4 µM. Subject: CCc1nc(N)nc(N)c1-c1ccc(Cl)c(/N=N/N(CCOC(C)=O)Cc2ccccc2Cl)c1
# output Condition not met

# input Field: below-cutoff. Rule: recorded IC50 strictly less than 4 µM. Subject: CCc1nc(N)nc(N)c1-c1ccc(Cl)c(/N=N/N(CCOC(C)=O)Cc2ccc([N+](=O)[O-])cc2)c1
# output Condition met

# input Field: below-cutoff. Rule: recorded IC50 strictly less than 4 µM. Subject: CCc1nc(N)nc(N)c1-c1ccc(Cl)c(/N=N/N(CCO)[C@H](C)c2ccccc2)c1
# output Condition not met

# input Field: below-cutoff. Rule: recorded IC50 strictly less than 4 µM. Subject: CCc1nc(N)nc(N)c1-c1ccc(Cl)c(/N=N/N(CCOC(C)=O)Cc2ccncc2)c1
# output Condition not met

# input Field: below-cutoff. Rule: recorded IC50 strictly less than 4 µM. Subject: CCc1nc(N)nc(N)c1-c1ccc(Cl)c(/N=N/N(CCOC(C)=O)Cc2ccc(C)cc2)c1
# output Condition met

# input Field: below-cutoff. Rule: recorded IC50 strictly less than 4 µM. Subject: CCc1nc(N)nc(N)c1-c1ccc(Cl)c(/N=N/N(CCOC(C)=O)Cc2cccc([N+](=O)[O-])c2)c1
# output Condition met

# input Field: below-cutoff. Rule: recorded IC50 strictly less than 4 µM. Subject: CCc1nc(N)nc(N)c1-c1ccc(Cl)c(/N=N/N(CCCO)Cc2ccccc2)c1
# output Condition not met

# input Field: below-cutoff. Rule: recorded IC50 strictly less than 4 µM. Subject: CCc1nc(N)nc(N)c1-c1ccc(Cl)c(/N=N/N(CCOC(=O)c2ccccc2)Cc2ccccc2)c1
# output Condition met

* * *

- experimentalSystem: UniProt:O30463
- Sequence (O30463 whole entry): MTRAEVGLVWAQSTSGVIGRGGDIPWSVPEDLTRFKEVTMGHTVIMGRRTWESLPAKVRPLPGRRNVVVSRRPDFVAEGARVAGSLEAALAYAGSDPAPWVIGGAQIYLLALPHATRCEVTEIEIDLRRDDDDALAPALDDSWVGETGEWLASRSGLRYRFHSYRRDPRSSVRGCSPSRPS
Rule for this label: T means IC50 is less than 4 µM; F means IC50 is at least 4 µM.

{"smilesRepresentation": "CCc1nc(N)nc(N)c1-c1ccc(Cl)c(/N=N/N(CCOC(C)=O)Cc2ccc([N+](=O)[O-])cc2)c1", "assignedLabel": "F"}
{"smilesRepresentation": "CCc1nc(N)nc(N)c1-c1ccc(Cl)c(/N=N/N(CCOC(C)=O)Cc2ccc(C)cc2)c1", "assignedLabel": "F"}
{"smilesRepresentation": "CCc1nc(N)nc(N)c1-c1ccc(Cl)c(/N=N/N(CCOC(C)=O)Cc2cccc([N+](=O)[O-])c2)c1", "assignedLabel": "T"}
{"smilesRepresentation": "CCc1nc(N)nc(N)c1-c1ccc(Cl)c(/N=N/N(CCOC(C)=O)Cc2cc(OC)cc(OC)c2)c1", "assignedLabel": "F"}

# input Field: below-cutoff. Rule: recorded IC50 strictly less than 4 µM. Subject: CCc1nc(N)nc(N)c1-c1ccc(Cl)c(/N=N/N(CCOC(C)=O)Cc2ccccc2C)c1
# output F

# input Field: below-cutoff. Rule: recorded IC50 strictly less than 4 µM. Subject: CCc1nc(N)nc(N)c1-c1ccc(Cl)c(/N=N/N(CCOC(C)=O)Cc2ccc(F)cc2)c1
# output F

# input Field: below-cutoff. Rule: recorded IC50 strictly less than 4 µM. Subject: CCc1nc(N)nc(N)c1-c1ccc(Cl)c(/N=N/N(CCO)CCc2ccccc2)c1
# output F

# input Field: below-cutoff. Rule: recorded IC50 strictly less than 4 µM. Subject: CCc1nc(N)nc(N)c1-c1ccc(Cl)c(/N=N/N(CCOC(C)=O)Cc2ccncc2)c1
# output T

# input Field: below-cutoff. Rule: recorded IC50 strictly less than 4 µM. Subject: CCc1nc(N)nc(N)c1-c1ccc(Cl)c(/N=N/N(CCOC(C)=O)Cc2cccc(C)c2)c1
# output F
